Hello, the source for this data is patent US20240101544A1, in case you need it.

- subject.of.test: QPCTL (Homo sapiens (Human), UniProt Q9NXS2)
- Sequence (Q9NXS2 53-382): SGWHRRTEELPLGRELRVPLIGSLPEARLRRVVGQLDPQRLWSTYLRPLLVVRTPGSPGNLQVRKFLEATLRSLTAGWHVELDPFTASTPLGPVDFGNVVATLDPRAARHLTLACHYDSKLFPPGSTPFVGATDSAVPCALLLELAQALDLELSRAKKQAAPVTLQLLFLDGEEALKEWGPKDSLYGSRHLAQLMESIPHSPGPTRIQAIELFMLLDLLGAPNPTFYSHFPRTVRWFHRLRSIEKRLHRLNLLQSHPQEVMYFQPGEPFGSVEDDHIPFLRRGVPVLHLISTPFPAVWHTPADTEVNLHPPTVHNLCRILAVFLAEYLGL
- assay.remarks: QPCTL Enzymatic Activity Assay (coupled-enzyme fluorescent assay, H-Gln-AMC substrate)
- Format: biochemical
- condition.summary: recombinant truncated human QPCTL 10-12 nM, 10 μM H-Gln-AMC; read-out: QPCTL Inhibition IC50
- Experimental: Protein expression was induced when the bacterial culture OD600 was approximately 0.7 using 1 mM IPTG and the cells incubated at 20° C. for approximately 16 hours. […] QPCTL activity was measured in a coupled-enzyme assay using the QPCTL substrate, glutamine-7-amido-4-methylcoumarin (H-Gln-AMC, Bachem), which is converted to pyroglutamyl-AMC by QPCTL. […] Following incubation, the fluorescence was measured with a plate reader using excitation at 380 nm and emission at 460 nm. […]
pIC50: −log10 of the molar value.
Listed here: items and their measured pIC50.

{"compound": "Cc1cc(-c2ccc(-c3ccn(C)n3)c(C#N)c2N2CCC(c3nncn3C)CC2)cnn1 [Example 61]", "endpoint.name": "pIC50", "measured.result": "> 7.00"}
{"compound": "Cn1cnnc1C1CCN(c2c(C#N)cccc2-c2ccc(B(O)O)cc2)CC1 [Example 111]", "endpoint.name": "pIC50", "measured.result": "6.00 to 7.00"}
{"compound": "Cn1cnnc1C1CCN(c2c(-c3ccc(F)nc3)ccc(OC3CC3)c2C#N)CC1 [Example 76]", "endpoint.name": "pIC50", "measured.result": "> 7.00"}

Q) Query: pIC50; subject: COc1ccncc1-c1cccc(C#N)c1N1CCC(c2cncn2C)CC1 [Example 31]
A) > 7.00

Q) Look up pIC50 for this compound: Cn1cnnc1C1CCN(c2c(C#N)cccc2-c2cnc3nccn3c2)CC1 [Example 93]
A) > 7.00

Q) Bench note: what pIC50 did Cn1cnnc1C1CCN(c2c(-c3ccc(F)nc3)ccc(-c3c[nH]nc3N)c2C#N)CC1 [Example 92] show?
A) > 7.00

Q) What measured pIC50 goes with Cn1cnnc1C1CCN(c2c(C#N)cccc2-c2cnnn2C)CC1 [Example 104] ?
A) 6.00 to 7.00

Q) Data request, read-out pIC50, for Cn1cnnc1C1CCN(c2c(C#N)cccc2-c2cnccc2Cl)CC1 [Example 10]
A) > 7.00
